- TARGET SYSTEM: hA2a (Homo sapiens (Human))
- Sequence (P29274 whole entry): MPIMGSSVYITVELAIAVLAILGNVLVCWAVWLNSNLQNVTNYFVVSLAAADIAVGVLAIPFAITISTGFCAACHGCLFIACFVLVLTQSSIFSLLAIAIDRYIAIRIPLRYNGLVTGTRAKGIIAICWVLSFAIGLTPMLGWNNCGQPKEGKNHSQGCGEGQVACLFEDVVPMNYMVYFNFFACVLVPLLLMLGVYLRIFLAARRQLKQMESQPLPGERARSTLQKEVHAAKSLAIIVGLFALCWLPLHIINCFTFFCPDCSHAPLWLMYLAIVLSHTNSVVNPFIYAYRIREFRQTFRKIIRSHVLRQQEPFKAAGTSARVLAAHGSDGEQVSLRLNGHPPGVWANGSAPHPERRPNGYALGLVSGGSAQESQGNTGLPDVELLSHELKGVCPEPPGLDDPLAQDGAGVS
- EXPERIMENT SUMMARY: Radioligand binding to hA2a membrane with [3H]-CGS21680
- PARTICULARS: read-out: Binding Affinity (IC50 nM) hA2a
API: label(entry) gives YES if the entry's IC50 is strictly smaller than 4 nM; on equality or larger values it gives NO.

MOLECULE	GROUP
Cn1nc(-c2nc(C(=O)NCc3c(F)cccc3F)c(N)nc2-c2ncco2)ccc1=O	YES
Cc1cnc2ccc(-c3nc(C(=O)NC[C@H]4CCOC4)c(N)nc3-c3ncco3)cn12	YES
Nc1nc(-c2ncco2)c(-c2ccc3ncnn3c2)nc1C(=O)NCc1ncccc1F	NO
Cc1scnc1CNC(=O)c1nc(-c2ccc(=O)n(C)c2)c(-c2ncco2)nc1N	YES
Cc1cnc2ccc(-c3nc(C(=O)NC(C)C)c(N)nc3-c3ncco3)cn12	YES
Cn1cnc2ccc(-c3nc(C(=O)NCc4ncccc4F)c(N)nc3-c3ncco3)cc21	YES
Nc1nc(-c2ncco2)c(-c2ccc3nncn3c2)nc1C(=O)NCc1c(F)cccc1F	YES
Cc1cnc2ccc(-c3nc(C(=O)NC[C@@H]4CCCO4)c(N)nc3-c3ncco3)cn12	YES
Nc1nc(-c2ncco2)c(-c2ccc3nccn3c2)nc1C(=O)NCc1ncccc1F	NO
Nc1nc(-c2ncco2)c(-c2ccc(=O)n(CCO)c2)nc1C(=O)NCc1c(F)cccc1F	YES
CNc1cccc(CNC(=O)c2nc(-c3ccc(=O)n(C)c3)c(-c3ncco3)nc2N)n1	YES
COc1ccccc1CNC(=O)c1nc(-c2cc(C)nc(C)c2)c(-c2ccc(C)o2)nc1N	NO
Cn1cc(-c2nc(C(=O)NC(CO)c3c(F)cccc3F)c(N)nc2-c2ncco2)ccc1=O (centres unmarked)	NO
Cn1cc(-c2nc(C(=O)NCc3c(F)cccc3F)c(N)nc2-c2ccc(F)cc2)ccc1=O	YES
COC[C@H](C)NC(=O)c1nc(-c2ccc3ncc(C)n3c2)c(-c2ncco2)nc1N	YES
Cn1cc(-c2nc(C(=O)NCc3cccc(N)n3)c(N)nc2-c2ncco2)ccc1=O	NO

* * *

- TARGET SYSTEM: hADORA1/CHO (hA1 expressing) cells (Homo sapiens (Human))
- Sequence (P30542 whole entry): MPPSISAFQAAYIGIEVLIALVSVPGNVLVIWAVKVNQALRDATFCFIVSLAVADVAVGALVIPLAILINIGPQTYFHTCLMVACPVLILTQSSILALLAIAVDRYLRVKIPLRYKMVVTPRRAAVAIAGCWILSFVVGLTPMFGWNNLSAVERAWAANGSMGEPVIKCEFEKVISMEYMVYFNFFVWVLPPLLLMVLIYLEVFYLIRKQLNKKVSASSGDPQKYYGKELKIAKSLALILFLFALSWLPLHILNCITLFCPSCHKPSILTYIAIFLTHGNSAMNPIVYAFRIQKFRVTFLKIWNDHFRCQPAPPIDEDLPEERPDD
- EXPERIMENT SUMMARY: cell-based
- PARTICULARS: FLIPR inhibition, 10 μM adenosine, read-out: cAMP & FLIPR IC50 (nM) hA1
PROPERTY: IC50

COMPOUND	PROPERTY	RESULT
Cc1cnc2ccc(-c3nc(C(=O)NC[C@@H]4CCCN4)c(N)nc3-c3ncco3)cn12	IC50	10000 nM
Cc1cnc2ccc(-c3nc(C(=O)NCC(C4CC4)N(C)C)c(N)nc3-c3ncco3)cn12 (single isomer, unassigned; isomer 1) [Example 253]	IC50	8170 nM
Cc1cnc2ccc(-c3nc(C(=O)NCCC(=O)N(C)C)c(N)nc3-c3ncco3)cn12	IC50	180 nM
Cn1cc(-c2nc(C(=O)NCc3cccc(N4CCC4)n3)c(N)nc2-c2ncco2)ccc1=O	IC50	725 nM
Cn1cc(-c2nc(C(=O)NCc3ccccc3F)c(N)nc2-c2ncco2)ccc1=O	IC50	486 nM
Cc1cnc2ccc(-c3nc(C(=O)NCCN(C)c4ccccc4)c(N)nc3-c3ncco3)cn12	IC50	260 nM
Cc1cnc2ccc(-c3nc(C(=O)N[C@@H]4CCCOC4)c(N)nc3-c3ncco3)cn12 (single isomer, unassigned; isomer 2)	IC50	> 10000 nM
Cc1ccc(-c2nc(N)c(C(=O)NCc3c(F)cccc3F)nc2-c2ccc(=O)n(C)c2)o1	IC50	26 nM
Cc1scnc1CNC(=O)c1nc(-c2ccc(=O)n(C)c2)c(-c2ncco2)nc1N	IC50	3380 nM
CC(O)Cn1cc(-c2nc(C(=O)NCc3c(F)cccc3F)c(N)nc2-c2ncco2)ccc1=O (single isomer, unassigned) [Example 107]	IC50	341 nM
Cc1cnc2ccc(-c3nc(C(=O)N[C@H]4CCN(C)C4)c(N)nc3-c3ccc(F)cc3)cn12	IC50	> 10000 nM
Cn1cc(-c2nc(C(=O)NCc3c(F)cccc3F)c(N)nc2-c2ncco2)ccc1=O	IC50	159 nM
Cc1cc(-c2nc(C(=O)NCc3c(F)cccc3F)c(N)nc2-c2ncco2)cc(C)n1	IC50	10000 nM
CN1CCCC1CNC(=O)c1nc(-c2ccc3ncc(C(F)(F)F)n3c2)c(-c2ncco2)nc1N (single isomer, unassigned) [Cmpd. 202]	IC50	6920 nM
CP(C)(=O)c1cccc(F)c1CNC(=O)c1nc(-c2ccc3nccn3c2)c(-c2ncco2)nc1N	IC50	136 nM
